Test system: Nannochloris sp.
Assay: Microplate assay: growth (absorbance 680 nm) and intracellular lipids (Nile Red fluorescence)
Type: cell-based
Conditions: Nannochloris sp., compounds tested at 20 μM, initial screening, p<0.05
Param label: returns Yes when Nile Red Fluorescence % Increase < 90%, returns No otherwise, including exact equality.

Study these solved cases before continuing.
## Input A record lists `C=C[C@@]1(C)CC(=O)[C@]2(O)[C@@]3(C)[C@@H](O)CCC(C)(C)[C@@H]3[C@H](O)[C@H](OC(C)=O)[C@@]2(C)O1` . Is its Nile Red Fluorescence % Increase below 90%?
## Output Yes

## Input Record `O=c1cc(-c2ccc(O)cc2)oc2cc(O)cc(O)c12` : is its Nile Red Fluorescence % Increase strictly below 90%?
## Output No

## Input Lab note: Nile Red Fluorescence % Increase threshold 90%. Does this compound come in strictly under it? `O=C1Cc2c([nH]c3ccc(Br)cc23)-c2ccccc2N1`
## Output No

More entries:
## Input For CC(O)C(=O)O (stereo not shown) , is the recorded Nile Red Fluorescence % Increase below the cut-off of 90%?
## Output Yes

## Input Hello, is Nile Red Fluorescence % Increase of the following compound strictly smaller than 90%? `Oc1ccc(/C=C/c2cc(O)cc(O)c2)cc1`
## Output Yes

## Input Find out if reported Nile Red Fluorescence % Increase for `O=C(O[C@@H]1Cc2c(O)cc(O)cc2O[C@@H]1c1cc(O)c(O)c(O)c1)c1cc(O)c(O)c(O)c1` is less than 90%
## Output No

## Input I wonder whether `N#CC(C#N)=Cc1cc(O)c(O)c(O)c1` has Nile Red Fluorescence % Increase below 90%. Can you tell?
## Output Yes

## Input Bench note: check whether `CO[C@H]1C[C@@H]2CC[C@@H](C)[C@@](O)(O2)C(=O)C(=O)N2CCCC[C@H]2C(=O)O[C@H]([C@H](C)C[C@@H]2CC[C@@H](O)[C@H](OC)C2)CC(=O)[C@H](C)/C=C(\C)[C@@H](O)[C@@H](OC)C(=O)[C@H](C)C[C@H](C)/C=C/C=C/C=C/1C` shows Nile Red Fluorescence % Increase below 90%
## Output No

## Input Nile Red Fluorescence % Increase strictly < 90% for this compound? CC(C)Cc1ccc(C(C)C(=O)O)cc1 (stereo not shown)
## Output Yes

## Input Threshold test, Nile Red Fluorescence % Increase < 90%: COC(=O)C=Cc1cc(O)ccc1O [Erbstatin analog, 2,5-Dihydroxymethylcinnamate]
## Output Yes

## Input In plain terms, does CC12C(=O)OC(=O)C1(C)C1CCC2O1 (stereo not shown) come in under 90% for Nile Red Fluorescence % Increase?
## Output Yes

## Input Quick check: does `O=C1C(Cl)=C(NCCN2CCOCC2)C(=O)c2ncccc21` have Nile Red Fluorescence % Increase under 90%?
## Output No

###

Listed here are molecules together with their documented Nile Red percent increase.
Test system: Nannochloris sp.
Experiment: Microplate assay: growth (absorbance 680 nm) and intracellular lipids (Nile Red fluorescence)
Type: cell-based
Settings: 200 nM; initial microplate screen, relative to control
Counter-ions that a name gives are not always drawn.
Quick note: give the figure in %, leave out the unit.

Answered examples (8):
According to the records, this molecule `O=c1c(O)c(-c2ccc(O)c(O)c2)oc2cc(O)cc(O)c12` displays Nile Red percent increase of 63.5

CC12C(=O)OC(=O)C1(C)C1CCC2O1 (stereo not shown) has a reported Nile Red percent increase of 64.5

What the record says about `Cn1c(=O)c2c(ncn2C)n(C)c1=O` : Nile Red percent increase is 60.4

// sample CC(=O)Nc1ccc(O)cc1 [Acetaminophen, N-(4-hydroxyphenyl)ethanamide] , its Nile Red percent increase was 68.9

Query `c1coc(CNc2ncnc3nc[nH]c23)c1` yields Nile Red percent increase of 72.4

Value of Nile Red percent increase reported for the molecule COC(=O)C=Cc1cc(O)ccc1O [Erbstatin analog, 2,5-Dihydroxymethylcinnamate] is 90.7

// Nile Red percent increase lookup, molecule = CC1CC(C)C(=O)C(C(O)CC2CC(=O)NC(=O)C2)C1 (stereo not shown) [Cycloheximide] , result: 178.1

So, `CCNc1nc(Cl)nc(NC(C)C)n1` ? Its Nile Red percent increase was 86.2

Others:
The molecule listed as Cc1ncc(C[n+]2csc(CCO)c2C)c(N)n1 [Thiamine, hydrochloride] has a reported Nile Red percent increase of 122.6

molecule `O=C(O)CC(O)(CC(=O)O)C(=O)O` , Nile Red percent increase observed: 55.41

`CC/C=C\C[C@H]1C(=O)CC[C@@H]1CC(=O)O` yielded Nile Red percent increase of 87.5

In plain terms, `O=C1Cc2c([nH]c3ccc(Br)cc23)-c2ccccc2N1` has a documented Nile Red percent increase of 77.5

According to the records, this molecule `Nc1cc2ncnc(Nc3cccc(Br)c3)c2cc1N` displays Nile Red percent increase of 75.8

Nile Red percent increase measured on `CO[C@H]1C[C@@H]2CC[C@@H](C)[C@@](O)(O2)C(=O)C(=O)N2CCCC[C@H]2C(=O)O[C@H]([C@H](C)C[C@@H]2CC[C@@H](O)[C@H](OC)C2)CC(=O)[C@H](C)/C=C(\C)[C@@H](O)[C@@H](OC)C(=O)[C@H](C)C[C@H](C)/C=C/C=C/C=C/1C` = 107.9

Measured Nile Red percent increase, `NS(=O)(=O)c1ccc(N/N=C2\C(=O)Nc3ccc(Br)cc32)cc1` : 103.2

The recorded Nile Red percent increase for entry CC1=CC(=O)CC(C)(C)[C@@]1(O)/C=C/C(C)=C\C(=O)O [Abscisic acid] equals 61.6

Lab book: Nile Red percent increase of `COc1cc(C[C@H]2C(=O)OC[C@@H]2Cc2ccc(OC)c(OC)c2)ccc1O` noted as 66.0

So, `C=C[C@@]1(C)CC(=O)[C@]2(O)[C@@]3(C)[C@@H](O)CCC(C)(C)[C@@H]3[C@H](O)[C@H](OC(C)=O)[C@@]2(C)O1` ? Its Nile Red percent increase was 60.6

# Nile Red percent increase (molecule: `C=C1C[C@]23C[C@@]1(O)CC[C@H]2[C@@]12C=C[C@H](O)[C@@](C)(C(=O)O1)[C@H]2[C@@H]3C(=O)O` ) is 70.4

Reported Nile Red percent increase for `C/C=C/C/C=C/CCC(=O)[C@H]1O[C@H]1C(N)=O` was 94.6

Entry `CCCCc1c(-c2ccc(O)cc2)[nH]c2nccnc12` — recorded Nile Red percent increase = 125.9

Entry `O=C(O[C@@H]1Cc2c(O)cc(O)cc2O[C@@H]1c1cc(O)c(O)c(O)c1)c1cc(O)c(O)c(O)c1` ; Nile Red percent increase = 92.1

###

Test system: Nannochloris sp.
Test: Microplate assay: growth (absorbance 680 nm) and intracellular lipids (Nile Red fluorescence)
Type: cell-based
Settings: Nannochloris sp.; 49 nM; dissolved in water; added t=day 0
outcome-measure: % Increase based on Nile Red Fluorescence Intensity (%)
// units = %; emit number, no label

# annotated cases, reported % Increase based on Nile Red Fluorescence Intensity shown
Form field % Increase based on Nile Red Fluorescence Intensity for item CCCCNC(=O)Oc1ccc(OCc2ccccc2)cc1 [FAAH Inhibitor I, 4-Benzyloxyphenyl-n-butylcarbamate] on Nannochloris sp.: 160

The compound COc1ccc2c(c1)c(CC(=O)O)c(C)n2C(=O)c1ccc(Cl)cc1 [Indomethacin] , tested on Nannochloris sp., showed % Increase based on Nile Red Fluorescence Intensity of 81

Note to self: % Increase based on Nile Red Fluorescence Intensity of NC(=O)c1cccc(-c2cccc(OC(=O)NC3CCCCC3)c2)c1 [FAAH Inhibitor II] with Nannochloris sp. was 154

Moving on to the next compound.
Fill in: Nannochloris sp. % Increase based on Nile Red Fluorescence Intensity for CCN(CC)CCCC(C)Nc1c2ccc(Cl)cc2nc2ccc(OC)cc12.Cl.Cl (stereo not shown) [Quinacrine] = 136

###

Each item that follows carries a reported Absorbance (percent increase).
System: Nannochloris sp.
Test: Microplate assay: growth (absorbance 680 nm) and intracellular lipids (Nile Red fluorescence)
Assay type: cell-based
Settings: 20 μM; initial microplate screen, relative to control

// field: Absorbance (percent increase); key: COc1cc(C[C@H]2C(=O)OC[C@@H]2Cc2ccc(OC)c(OC)c2)ccc1O [Arctigenin] ; value = −5.4%

Short answer for CCCCc1c(-c2ccc(O)cc2)[nH]c2nccnc12 [Aloisine A] : Absorbance (percent increase) was −12.6%

# compound O=C(O[C@@H]1Cc2c(O)cc(O)cc2O[C@@H]1c1cc(O)c(O)c(O)c1)c1cc(O)c(O)c(O)c1 [EGCG] ; its Absorbance (percent increase) = +1.9%

Recorded result, O=c1cc(-c2ccc(O)cc2)oc2cc(O)cc(O)c12 [Apigenin] , Absorbance (percent increase): −7.3%
